# Subject Of Test: trypsin (Bos taurus, UniProt P00760)
# Sequence (P00760 24-246): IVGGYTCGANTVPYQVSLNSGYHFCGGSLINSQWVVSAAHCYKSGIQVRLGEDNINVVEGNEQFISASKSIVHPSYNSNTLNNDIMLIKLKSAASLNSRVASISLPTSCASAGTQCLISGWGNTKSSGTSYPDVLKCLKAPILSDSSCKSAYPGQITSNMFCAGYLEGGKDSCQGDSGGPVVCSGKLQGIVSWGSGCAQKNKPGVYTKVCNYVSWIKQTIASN
# Assay Notes: Trypsin inhibition, fluorogenic substrate Z-Arg-AMC (FIG. 25d)
# Format: biochemical, bovine
# Procedure: Conditions were adopted from a previously reported protocol.^17 Trypsin (200 fmol) was diluted in 90 μL PBS and was incubated with various concentrations of antipain, a known inhibitor of tryptic proteolysis, or 2e-antipain. The solution was equilibrated at room temperature for 10 minutes and at 35° C. for 5 minutes before addition of the fluorogenic proteolytic substrate Z-Arg-AMC (Bachem) (10 nmol in 10 μL 50% DMSO) (final volume=100 μL). […]
Numbered stars: 1 amine (or outer) side, 2 acyl side, 3 side chain; on linkers, the order of the positions; unused ones are H or OH. Peptide text beside a SMILES is read from it. CO = O=C([*:1])[*:2]
Reported Metric: Ki (nM)
Numbers only, in nM.

Ki recorded for this molecule, CC(C)[C@H](NC(=O)[C@H](CCCNC(=N)N)NC(=O)N[C@@H](Cc1ccccc1)C(=O)O)C(=O)N[C@H](C=O)CCCNC(=N)N [antipain] ({Phe-CO}-Arg-Val-Arg-aldehyde) , is 39.5
